The origin of these recorded values is paper PMC5700166.

The sequences listed here are annotated with their binding signal.
# TEST_TARGET: GST-Co-NF-kB (Capsaspora owczarzaki, UniProt F1ARL5 200-546)
# Sequence: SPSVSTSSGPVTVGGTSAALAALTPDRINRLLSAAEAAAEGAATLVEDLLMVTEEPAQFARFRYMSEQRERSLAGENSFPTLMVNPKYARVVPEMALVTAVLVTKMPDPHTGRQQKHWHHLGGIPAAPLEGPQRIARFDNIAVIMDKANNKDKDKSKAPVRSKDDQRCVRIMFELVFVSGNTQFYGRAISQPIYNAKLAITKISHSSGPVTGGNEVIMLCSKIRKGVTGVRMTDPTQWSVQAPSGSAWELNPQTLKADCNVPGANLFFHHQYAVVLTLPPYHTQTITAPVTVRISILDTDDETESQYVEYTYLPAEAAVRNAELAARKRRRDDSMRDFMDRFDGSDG
# METHOD_NOTES: protein-binding microarray (PBM); PBM: ~300 nM protein, 6 mM HEPES pH 7.8, 80 mM KCl, 0.5 mM EDTA, 0.5 mM EGTA, 6% glycerol, 35 ng/ul poly-dIdC, 1% milk, 1 h, room temperature; Ap Aiptasia and Nv Nematostella (sea anemones) / Co Capsaspora / Aq Amphimedon (sponge) / Dm Drosophila / Hu human; RHD is the Rel homology domain; high values mean tight binding
# MEASUREMENT_CONTEXT: dsDNA, one strand shown

{"SEQUENCE_CODE": "CCGATTAACATCAGGAAACACCCTGATGTTAATCGGGTCTTGATTCGCTTGACGCTGCTG", "binding signal, z-score": 1.1}
{"SEQUENCE_CODE": "CCGATTAACATCAGGGAATTCCCTGATGTTAATCGGGTCTTGATTCGCTTGACGCTGCTG", "binding signal, z-score": 7.25}
{"SEQUENCE_CODE": "CCGATTAACATCAGGAACTCCCCTGATGTTAATCGGGTCTTGATTCGCTTGACGCTGCTG", "binding signal, z-score": 3.87}
{"SEQUENCE_CODE": "CCGATTAACATCAGGGGAGGAAATGATGTTAATCGGGTCTTGATTCGCTTGACGCTGCTG", "binding signal, z-score": 7.38}
{"SEQUENCE_CODE": "CCGATTAACATCACCTCTTTCCCTGATGTTAATCGGGTCTTGATTCGCTTGACGCTGCTG", "binding signal, z-score": 3.61}
{"SEQUENCE_CODE": "CCGATTAACATCAGGGGGGAACATGATGTTAATCGGGTCTTGATTCGCTTGACGCTGCTG", "binding signal, z-score": 9.73}
{"SEQUENCE_CODE": "CCGATTAACATCACCGAACCCCCTGATGTTAATCGGGTCTTGATTCGCTTGACGCTGCTG", "binding signal, z-score": 2.04}
{"SEQUENCE_CODE": "CCGATTAACATCAGGGGGACTACTGATGTTAATCGGGTCTTGATTCGCTTGACGCTGCTG", "binding signal, z-score": 4.53}
{"SEQUENCE_CODE": "CCGATTAACATCAGGCTTTCCCATGATGTTAATCGGGTCTTGATTCGCTTGACGCTGCTG", "binding signal, z-score": 2.07}
{"SEQUENCE_CODE": "CCGATTAACATCAGGGGATTATATGATGTTAATCGGGTCTTGATTCGCTTGACGCTGCTG", "binding signal, z-score": 4.18}
{"SEQUENCE_CODE": "CCGATTAACATCACGGATATCCCTGATGTTAATCGGGTCTTGATTCGCTTGACGCTGCTG", "binding signal, z-score": 1.15}
{"SEQUENCE_CODE": "CCGATTAACATCAACATGGGAAATGATGTTAATCGGGTCTTGATTCGCTTGACGCTGCTG", "binding signal, z-score": 1.82}
{"SEQUENCE_CODE": "CCGATTAACATCAAGAAAATCCCTGATGTTAATCGGGTCTTGATTCGCTTGACGCTGCTG", "binding signal, z-score": 2.27}
{"SEQUENCE_CODE": "CCGATTAACATCAGATTCCCCCATGATGTTAATCGGGTCTTGATTCGCTTGACGCTGCTG", "binding signal, z-score": 8.94}
{"SEQUENCE_CODE": "CCGATTAACATCATATTTTCCCATGATGTTAATCGGGTCTTGATTCGCTTGACGCTGCTG", "binding signal, z-score": 4.34}
{"SEQUENCE_CODE": "CCGATTAACATCAAAATCCCCCGTGATGTTAATCGGGTCTTGATTCGCTTGACGCTGCTG", "binding signal, z-score": 8.56}
{"SEQUENCE_CODE": "CCGATTAACATCATTTCCCTTGATGATGTTAATCGGGTCTTGATTCGCTTGACGCTGCTG", "binding signal, z-score": 1.95}
{"SEQUENCE_CODE": "CCGATTAACATCACTAAATTCCCTGATGTTAATCGGGTCTTGATTCGCTTGACGCTGCTG", "binding signal, z-score": 4.15}
